# assay.remarks: Cytotoxicity on red blood cells at 4 °C
# Assay type: cell-based, human
# test.parameters: red blood cells (erythrocytes); human RBCs, 4 °C

compound | CC50 at 24 h [µg/mL]
C=CC(C)(O)CCC=C(C)C (stereo not shown) | 7340

###

# assay.remarks: Cytotoxicity on Vero cells, MTT assay
# Assay type: cell-based
# test.parameters: African green monkey, Vero cells (ATCC CCL-81), Vero cells, b44 prints at 4 °C, read-out: CC50/24 h

molecule | CC50 at 24 h
C=CC(C)(O)CCC=C(C)C (stereo not shown) | 0.824 µg/mL

###

# assay.remarks: Cytotoxicity on Vero cells, MTT assay
# Type: cell-based
# test.parameters: African green monkey, Vero cells (ATCC CCL-81), Vero cells, 37 °C, read-out: Vero cells CC50/24 h
CC50 at 24 h values for the compounds below.

compound | result.modifier | CC50 at 24 h (µg/mL)
O=C(Cn1ccnc1[N+](=O)[O-])NCc1ccccc1 | > | 1000
C=CC(C)(O)CCC=C(C)C (centres unmarked) | = | 0.87
